Cited source: the supplement of paper PMC9170038

System: MS2 coat protein
TEST DESCRIPTION: apparent KD of MS2 coat protein; designed switch direction (-1 OFF switch, 1 ON switch): -1; higher = weaker reporter binding
RUN PARAMETERS: input ligand: microRNA oligo, concentration not stated
Entries and their apparent KD of MS2 coat protein
All answers are understood in nM, so give the number only.

**Q:** Provide measured apparent KD of MS2 coat protein on MS2 coat protein for UGUCAGAUGGUAGGAUAUCCAUAUCGAGUGACCCUUUCAUAACAUGAGGAUCACCCAUGUCGGUGGGAGAAGGGCCGUACGGUG [salish99_ExNG02_R04_024] (Eterna round: R96, puzzle: Exclusion NG 2) please.
**A:** 29.6

**Q:** # return apparent KD of MS2 coat protein of ACAUGAUGCUUAGGAUAUGUUCUUACGCCAUGAAUAGAAGGGAGCGGACAGAAGUGACCUGACAUGAGGAUCACCCAUGUCUAA [Isusus] (Eterna round: R96, puzzle: Exclusion NG 1) (system: MS2 coat protein)
**A:** 48

**Q:** State, for MS2 coat protein, measured apparent KD of MS2 coat protein of the sequence listed here: AGACCGAUAGCAGGAUAUAGGACGACGAGAGCGCUAGAAGGGCUGACGACAUGAGGAUCACCCAUGUUUUCGUCUCAACAGGCA [Eternabot solution 22] (Eterna round: R96, puzzle: Exclusion NG 1)
**A:** 23.1

**Q:** Provide apparent KD of MS2 coat protein, system MS2 coat protein, entry CCCACGCACCAAGGAUAUGUUCCGCACAUGAGGAUCACCCAUGUGGCCAGCGAUUCUGUGUGAGAACAGAAGGUGGUUAUGUUA [Eternabot solution 41] (Eterna round: R96, puzzle: Exclusion NG 2)
**A:** 315

**Q:** Provide MS2 coat protein apparent KD of MS2 coat protein reading for GCGCACCUACCAAAAGGUAGGCCGACAUGAGGAUCACCCAUGUAGGAUAUCGAUUGCUUUGCAGUCGAGAAGGACGUGAUGCGC [JL ENG3 3.80 Mod 18] (Eterna round: R96, puzzle: Exclusion NG 3) .
**A:** 14.7

***
**Q:** Retrieve apparent KD of MS2 coat protein on MS2 coat protein; query UAUAUAUAGUAAGGAUAUGUAUAUAUUGUAUAAACAGAAGGUACUGACAUGAGGAUCACCCAUGUUUUAGUGUGGGCAUGUAGA [JMF's solution 61] (Eterna round: R96, puzzle: Exclusion NG 1)
**A:** 57.5

**Q:** Please report apparent KD of MS2 coat protein with MS2 coat protein for item ACAUGAGGAUCACCCAUGUACAGGGUGUAGUUUCAUUGUUUGAAGGAUAUACUUAGUUAGUUGUUGUAGAAGGUCAUAUUUCAU [JR_ExcNG3_Sub001] (Eterna round: R96, puzzle: Exclusion NG 3) .
**A:** 500

**Q:** Under MS2 coat protein: report apparent KD of MS2 coat protein of UCACGGGAUUGAGGAUAUAUAUGAAUUUUUUUUAUAGAAGGCAAAAUGUUAGAUUAUUCACUAUACAUGAGGAUCACCCAUGUU [JR_ExcBG1_Sub075] (Eterna round: R96, puzzle: Exclusion NG 1) .
**A:** 20.3

**Q:** Provide measured apparent KD of MS2 coat protein on MS2 coat protein for GUGUACAGAGGAUAUAUAUGAGCUAGGAAACUAGCAAACUCACAUGAGGAUCACCCAUGUAGAAGGCUGUACAC [Ex2: 722] (Eterna round: R96, puzzle: Exclusion 2) please.
**A:** 22.4
